Task for the reader: assign each of the following compounds its reported growth.
# Tested on: MALME-3M melanoma
# method: NCI-60 one-dose screen, 48 h (100 = growth as untreated, 0 = no growth, -100 = all killed)
# stated_conditions: 10 µM unless noted
The panel holds about 83,000 compounds, 20% with a hit somewhere; the sample as a whole holds those more often.
Respond with the bare value in %.

For O=C(Nc1ccc2[nH]ncc2c1)c1csc(Nc2ccccc2)n1 on MALME-3M melanoma, measured growth was 69

For CC(C)(C)CC(C)(C)Nc1c(-c2c(O)c3ccccc3oc2=O)nc2sccn12 on MALME-3M melanoma, measured growth was 94

For CC(=O)CC(=O)c1ccccc1.[Cu+2] on MALME-3M melanoma, measured growth was 95.2

For O=C(CSc1nnc(-c2cc(-c3ccc(Cl)cc3)nc3ccccc23)n1-c1ccccc1)Nc1ccc(Cl)cc1 on MALME-3M melanoma, measured growth was 107

For [2H]C([2H])([2H])Oc1ccc(/C=C/C(=O)/C=C(O)/C=C/c2ccc(OC([2H])([2H])[2H])c(OC([2H])([2H])[2H])c2)cc1OC([2H])([2H])[2H] on MALME-3M melanoma, measured growth was 79.2

For CCCN1C2CCC1/C(=C\c1ccc(OC)cc1)C(=O)/C2=C/c1ccc(OC)cc1 on MALME-3M melanoma, measured growth was 57.5

For Cn1cc(-c2csc(-c3cn(C)c4ccc(F)cc34)n2)c2cnccc21 on MALME-3M melanoma, measured growth was -92.5

For Cn1ccnc1C(=O)/C=C/c1ccc(C(=O)Nc2c(F)c(F)c(F)c(F)c2F)cc1 on MALME-3M melanoma, measured growth was 80.9

For O=[N+]([O-])c1ccc(N/N=C\c2cc(Cl)ccc2O)nc1 on MALME-3M melanoma, measured growth was 25.6

For COc1ccc(NC(=O)CSc2oc(-c3ccccc3)nc2S(=O)(=O)c2ccc(Cl)cc2)c(OC)c1 on MALME-3M melanoma, measured growth was 57.6

For O=c1c(/C=C/c2c(O)ccc3ccccc23)nnc2sc(-c3cccc([N+](=O)[O-])c3)nn12 on MALME-3M melanoma, measured growth was 72.9

For CCC(=C(c1ccc(OCCN(CC)CC)cc1)c1ccc(OCCN(CC)CC)cc1)c1ccc(Cl)cc1 on MALME-3M melanoma, measured growth was -81.4

For NCCNc1ccc([N+](=O)[O-])cc1 on MALME-3M melanoma, measured growth was 115

For O=C(Nc1cccc(Cn2c(=O)[nH]c3ccc(Oc4ncccn4)cc3c2=O)c1)c1cccc(Cl)c1 on MALME-3M melanoma, measured growth was 79.5

For O=c1ccc2c(ccc3ncccc32)o1 on MALME-3M melanoma, measured growth was 121

For CN1CCN(Cc2ccc(NC(=O)c3cncc(C#Cc4cnc(N)c5ncccc45)c3)cc2Cl)CC1 on MALME-3M melanoma, measured growth was 54.2

For COc1ccc(-c2cc(-c3ccc(N(C)C)cc3)nc(NC(=O)c3cccnc3)n2)cc1 on MALME-3M melanoma, measured growth was 120

For COc1ccc(CNc2ccc3nc(CCC4CCCCC4)[nH]c3c2)cc1 on MALME-3M melanoma, measured growth was 59.4

For COc1cccc(/C=C/C(=O)/C=C(/C=C/c2cccc(OC)c2OC)OB(F)F)c1OC on MALME-3M melanoma, measured growth was 32

For C=C(C)[C@@H]1CC[C@]2(C(=O)NC(C)=O)CC[C@]3(C)[C@H](CC[C@@H]4[C@@]5(C)CCCNC(C)(C)[C@@H]5CC[C@]43C)[C@@H]12 on MALME-3M melanoma, measured growth was -83.3

For CCOC(=O)c1cnc2sc(-c3ccc(OC)cc3)nc2c1Cl on MALME-3M melanoma, measured growth was 76.3

For O=C(/C=C/c1cccc([N+](=O)[O-])c1)c1ccc(Nc2nc(Nc3ccc(F)cc3)nc(Nc3ccc(Cl)cc3)n2)cc1 on MALME-3M melanoma, measured growth was 105

For c1ccc(-c2cn3nc(-c4c[nH]c5ccccc45)sc3n2)cc1 on MALME-3M melanoma, measured growth was 62.6

For COc1cc(C(=O)n2nc(NCCCc3ccccc3)c3cc(N)ccc32)cc(OC)c1OC on MALME-3M melanoma, measured growth was 100

For C=C(C)[C@@H]1CC[C@]2(COC(=O)c3cccnc3)CC[C@]3(C)[C@H](CC[C@@H]4[C@@]5(C)CCCN(C(=O)c6cccnc6)C(C)(C)[C@@H]5CC[C@]43C)[C@@H]12 on MALME-3M melanoma, measured growth was 69.1

For CCOC(=O)C1=C(c2ccccc2)N=C2SC=C(c3cccc([N+](=O)[O-])c3)N2C1c1ccc(O)cc1 (centres undefined) on MALME-3M melanoma, measured growth was 96.7

For C#Cc1cccc(Nc2ncnc3ccc(-c4cnc(Cl)c(NS(C)(=O)=O)c4)cc23)c1 on MALME-3M melanoma, measured growth was -35.5

For CCOc1ccc(N2C(=O)CCSC2=S)cc1 on MALME-3M melanoma, measured growth was 96

For CN1/C(=C/C=C/c2n(Cc3ccc4ccccc4c3)c(Cl)c(Cl)[n+]2Cc2ccc3ccccc3c2)Oc2ccccc21 on MALME-3M melanoma, measured growth was -97.1

For Cc1nc2c(c(-c3ccccc3)n1)Cc1c(ccc3ccccc13)O2 on MALME-3M melanoma, measured growth was 126

For Cc1cccc(CN(Nc2ccccc2)c2ccccc2)n1 on MALME-3M melanoma, measured growth was 89.8

For COc1cc(C)cc(-c2c(-c3cc(N4CC(O)C4)nc(-c4cccnc4)n3)cnn2C)c1 on MALME-3M melanoma, measured growth was 104

For O=c1c(Cc2ccc(F)cc2)cc(-c2ccccc2)nn1C/C(=N/O)c1ccccc1 on MALME-3M melanoma, measured growth was 35.8

For C#CCOc1ccc(C2=NN(C)C3N=C(Cl)c4ncn(C)c4N23)cc1OCC#C (centres undefined) on MALME-3M melanoma, measured growth was 112

For CC(C)(C)c1ccc(C(=O)Nc2sc3c(c2C#N)CCC(=O)C3)cc1 on MALME-3M melanoma, measured growth was -18.6

For COc1ccc(-c2nc(SCCC(C)C)nc(N/N=C(/C)c3ccc(N)cc3)c2C#N)cc1 on MALME-3M melanoma, measured growth was 104

For CCOC(=O)c1c(C)nc2c(c1N)C(=O)C(=O)N2CCc1ccc(OC)c(OC)c1 on MALME-3M melanoma, measured growth was 79.1

For CC1=C(C(=O)OCc2ccccc2)C(c2ccc3c(c2)OCO3)n2c(nc3ccccc32)N1 (centres undefined) on MALME-3M melanoma, measured growth was 39.7

For Clc1ccc2c(NCCCn3cnc4c(N5CCCC5)nc(Cl)nc43)ccnc2c1 on MALME-3M melanoma, measured growth was 101

* * *

# Test system: SK-MEL-28 melanoma
# method: NCI-60 one-dose screen, 48 h (100 = growth as untreated, 0 = no growth, -100 = all killed)
# stated_conditions: 10 µM unless noted
Compounds without any hit were thinned out: in the full panel of roughly 83,000, 20% have a hit.
value_kind: growth (%)
Respond with the bare value in %.

Quick note, growth for Nc1nc(N)c2c(n1)NC(c1ccc3c(c1)OCO3)CC(c1cccc(Nc3ccncc3)c1)=N2 (centres undefined) landed at 108

Quick note, growth for CC1(C)CCC[C@]23C(=O)O[C@](O)(C(=O)C4=C[C@@](C)(/C=C/CCCc5ccc6ccc7cccc8ccc5c6c78)CC[C@@]42O)[C@@H]13 landed at -86.6

Quick note, growth for O=c1ccc2nc(-c3ccccc3)nn(-c3ccccn3)c-2c1 landed at 87.2

Quick note, growth for O=C(CN1C(=O)c2ccccc2S1(=O)=O)Nc1nc(-c2cc3ccccc3oc2=O)cs1 landed at 107

Quick note, growth for CCOC(=O)C1=C(c2ccccc2)N=C2SC=C(c3cccc([N+](=O)[O-])c3)N2C1c1ccc(O)cc1 (centres undefined) landed at 104

Quick note, growth for COc1ccc(NC(=O)c2sc3nc(C)c(C(=O)c4ccccc4)cc3c2N)cc1 landed at 89.9

Quick note, growth for CCCCCN(CCCCC)CC(O)c1c(Cl)ccc2ccccc12 (centres undefined) landed at 97.3

Quick note, growth for O=C(NS(=O)(=O)c1ccccc1)n1cc(-c2ccncc2)c(-c2cc(O)cc(Cl)c2)n1 landed at 67.6

Quick note, growth for C#C[C@]1(O)CC[C@H]2[C@@H]3CC=C4c5sc(-c6ccccc6)nc5CC[C@]4(C)[C@H]3CC[C@@]21C landed at 61.2

* * *

# Test system: HCT-15 colon
# method: NCI-60 one-dose screen, 48 h
# stated_conditions: 10 µM unless noted
# Protocol: Growth inhibition of the HCT-15 human tumor cell line is measured as a screen for anti-cancer activity. Cells are grown in 96 well plates and exposed to the test compound for 48 hours. Compounds are tested at a single concentration, which is 10^-5 M for most compounds. The reported endpoint is percent growth (GI% or GIPRCNT), where numbers from 0 - 100% represent growth inhibition, and numbers from -100% - 0 represent cell death. For example, a value of 40 represents 60% growth inhibition. […]
Compounds without any hit were thinned out: in the full panel of roughly 83,000, 20% have a hit. Calls of active or inactive are those of the source. The calls were made as follows: active = growth percent below 10; inactive = the rest.
Bench note: report the call from class 1 for active, class 0 for inactive

Can you look up the reported call for O=C(OCC(O)(CO)C(=O)NC12CC3CC(CC(C3)C1)C2)c1ccc(Cl)cc1 (stereo unspecified) for me?
class 0

Can you look up the reported call for O=C1c2c(c3c4cccnc4[nH]c3c3ccc4ccccc4c23)C(=O)N1O for me?
class 0

Can you look up the reported call for CSc1nn2c(-c3cc4cc(Br)ccc4oc3=O)ccnc2c1C#N for me?
class 0

Can you look up the reported call for COc1ccc(Nc2nccc(Nc3ccc4[nH]ncc4c3)n2)cc1 for me?
class 1

Can you look up the reported call for COCCNC(=O)Cc1cc(-c2ccc(Cl)cc2)n(-c2ccccc2)c1C for me?
class 0

Can you look up the reported call for CCOC(=O)/C(=C\c1ccccc1Cl)P(=O)(OCC)OCC for me?
class 0
